B1: DVL3 (parent)
chain: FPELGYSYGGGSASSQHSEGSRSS

Variants of: B1
TEST NAME: protein stability index of a GFP-peptide fusion (GPS, HEK-293T) (PSI 1-6); higher = more stable;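 further: lentivirally expressed fusions sorted by FACS into six bins by GFP to DsRed ratio, PSI derived from sequencing read proportions per bin multiplied by bin number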
MEASUREMENT PARAMETERS: c terminus: a fixed tail appended
# protein stability index annotations
READOUT KIND: protein stability index

variant_string=Y8F readout_kind="protein stability index" numeric_readout=2.59
variant_string=S12N readout_kind="protein stability index" numeric_readout=3.17
variant_string=E3T readout_kind="protein stability index" numeric_readout=2.19
variant_string=F1W readout_kind="protein stability index" numeric_readout=4.25
variant_string=S21N readout_kind="protein stability index" numeric_readout=2.91
variant_string=G10H readout_kind="protein stability index" numeric_readout=3.12
variant_string=L4M readout_kind="protein stability index" numeric_readout=2.09
variant_string=S21P readout_kind="protein stability index" numeric_readout=3.43
variant_string=S12Y readout_kind="protein stability index" numeric_readout=2.41
variant_string=G10W readout_kind="protein stability index" numeric_readout=1.89
variant_string=Q16G readout_kind="protein stability index" numeric_readout=2.88
variant_string=G11H readout_kind="protein stability index" numeric_readout=3.29
variant_string=Q16A readout_kind="protein stability index" numeric_readout=2.86
variant_string=P2T readout_kind="protein stability index" numeric_readout=2.38
variant_string=E3C readout_kind="protein stability index" numeric_readout=2.76
variant_string=P2H readout_kind="protein stability index" numeric_readout=2.1
variant_string=G5Q readout_kind="protein stability index" numeric_readout=4.39
variant_string=E19C readout_kind="protein stability index" numeric_readout=2.39
variant_string=S12W readout_kind="protein stability index" numeric_readout=2.22
variant_string=P2M readout_kind="protein stability index" numeric_readout=3.96
variant_string=P2R readout_kind="protein stability index" numeric_readout=4.09
variant_string=S14M readout_kind="protein stability index" numeric_readout=2.59
variant_string=H17S readout_kind="protein stability index" numeric_readout=2.8
variant_string=Y8M readout_kind="protein stability index" numeric_readout=3.6
variant_string=S7W readout_kind="protein stability index" numeric_readout=1.74
variant_string=S14Y readout_kind="protein stability index" numeric_readout=2.37
variant_string=S14C readout_kind="protein stability index" numeric_readout=2.71
variant_string=R22I readout_kind="protein stability index" numeric_readout=3.43
variant_string=L4S readout_kind="protein stability index" numeric_readout=2.62
variant_string=H17Y readout_kind="protein stability index" numeric_readout=2.45
variant_string=Y6P readout_kind="protein stability index" numeric_readout=3.76
variant_string=S24H readout_kind="protein stability index" numeric_readout=3
variant_string=S21L readout_kind="protein stability index" numeric_readout=2.61
variant_string=G20C readout_kind="protein stability index" numeric_readout=2.99
variant_string=S15Y readout_kind="protein stability index" numeric_readout=2.73
variant_string=R22L readout_kind="protein stability index" numeric_readout=2.53
variant_string=A13N readout_kind="protein stability index" numeric_readout=3.03
variant_string=S24C readout_kind="protein stability index" numeric_readout=2.99
variant_string=G11M readout_kind="protein stability index" numeric_readout=2.73
variant_string=S15L readout_kind="protein stability index" numeric_readout=3.16
variant_string=Y8K readout_kind="protein stability index" numeric_readout=2.95
variant_string=P2W readout_kind="protein stability index" numeric_readout=3.2
variant_string=E19T readout_kind="protein stability index" numeric_readout=3.24
variant_string=Y6V readout_kind="protein stability index" numeric_readout=3.75
variant_string=G5I readout_kind="protein stability index" numeric_readout=2.93
variant_string=S21A readout_kind="protein stability index" numeric_readout=2.94
variant_string=Q16E readout_kind="protein stability index" numeric_readout=3.22
variant_string=S15K readout_kind="protein stability index" numeric_readout=2.64
variant_string=S23P readout_kind="protein stability index" numeric_readout=3.23
variant_string=G9K readout_kind="protein stability index" numeric_readout=3.18
variant_string=G11P readout_kind="protein stability index" numeric_readout=2.9
variant_string=S15D readout_kind="protein stability index" numeric_readout=2.99
variant_string=S15M readout_kind="protein stability index" numeric_readout=2.74
variant_string=S12A readout_kind="protein stability index" numeric_readout=2.58
variant_string=F1V readout_kind="protein stability index" numeric_readout=4.03
variant_string=S24M readout_kind="protein stability index" numeric_readout=2.97
variant_string=F1I readout_kind="protein stability index" numeric_readout=5.21
variant_string=H17P readout_kind="protein stability index" numeric_readout=3.35
variant_string=S7T readout_kind="protein stability index" numeric_readout=2.36
variant_string=G9S readout_kind="protein stability index" numeric_readout=3.27
variant_string=P2D readout_kind="protein stability index" numeric_readout=5.09
variant_string=S7V readout_kind="protein stability index" numeric_readout=2.42
variant_string=Y6Q readout_kind="protein stability index" numeric_readout=4.3
variant_string=Q16I readout_kind="protein stability index" numeric_readout=3.05
variant_string=G11K readout_kind="protein stability index" numeric_readout=2.7
variant_string=G10S readout_kind="protein stability index" numeric_readout=3.45
variant_string=F1K readout_kind="protein stability index" numeric_readout=4.89
variant_string=Q16R readout_kind="protein stability index" numeric_readout=2.41
variant_string=G5M readout_kind="protein stability index" numeric_readout=3.31
variant_string=S15T readout_kind="protein stability index" numeric_readout=2.65
variant_string=S18L readout_kind="protein stability index" numeric_readout=2.86
variant_string=F1S readout_kind="protein stability index" numeric_readout=4.99
variant_string=G5C readout_kind="protein stability index" numeric_readout=3.52
variant_string=Q16C readout_kind="protein stability index" numeric_readout=2.81
variant_string=Q16L readout_kind="protein stability index" numeric_readout=2.83
variant_string=S7L readout_kind="protein stability index" numeric_readout=2.26
variant_string=S21C readout_kind="protein stability index" numeric_readout=3.3
variant_string=G5P readout_kind="protein stability index" numeric_readout=2.58
variant_string=G9A readout_kind="protein stability index" numeric_readout=2.39
variant_string=E3H readout_kind="protein stability index" numeric_readout=2.58
variant_string=G20A readout_kind="protein stability index" numeric_readout=2.52
variant_string=G10R readout_kind="protein stability index" numeric_readout=2.74
variant_string=S15N readout_kind="protein stability index" numeric_readout=3.38
variant_string=R22E readout_kind="protein stability index" numeric_readout=3.71
variant_string=S7N readout_kind="protein stability index" numeric_readout=3.55
variant_string=S14E readout_kind="protein stability index" numeric_readout=3.41
variant_string=G10L readout_kind="protein stability index" numeric_readout=2.62
variant_string=H17M readout_kind="protein stability index" numeric_readout=2.62
variant_string=S7R readout_kind="protein stability index" numeric_readout=2.18
variant_string=S14I readout_kind="protein stability index" numeric_readout=2.9
variant_string=S23Q readout_kind="protein stability index" numeric_readout=3.24
